Record set: IC50 | Aminopeptidase N (Sus scrofa, UniProt P15145) | literature, multiple sources.
Numbers only; they are read as µM.

CC(C)C[C@H](NC(=O)NCc1c(Cl)cccc1Cl)C(=O)NO ... 0.58

Request body: readout IC50, system Aminopeptidase N (Sus scrofa, UniProt P15145), query NC[C@H](O)C(=O)NC[C@H](N)[C@@H](O)c1ccc([N+](=O)[O-])cc1 . Return the value.
164

Request body: readout IC50, system Aminopeptidase N (Sus scrofa, UniProt P15145), query O=C(/C=C/c1ccccc1)N[C@H](CC(=O)Nc1ccc([N+](=O)[O-])cc1)C(=O)O . Return the value.
273

Request body: readout IC50, system Aminopeptidase N (Sus scrofa, UniProt P15145), query COc1cc(Cn2cc(CNC(=O)N[C@@H](CC(C)C)C(=O)NO)nn2)cc(OC)c1OC . Return the value.
1.4

----------
Record set: IC50 | Aminopeptidase N (Sus scrofa, UniProt P15145) | literature, multiple sources.
Recorded IC50 determines the group label, using low: < 2 µM; moderate: ≥ 2 µM and < 7 µM; high: ≥ 7 µM

Classify this compound: O=C(NCCc1ccccc1)N[C@@H](CCCCNC(=O)OCc1ccccc1)C(=O)NO
high

Classify this compound: O=C(Nc1ccccc1)N[C@H](C(=O)NO)c1ccccc1
moderate

Classify this compound: N[C@@H](C(=O)N[C@@H](Cc1ccccc1)C(=O)NO)[C@@H](O)c1ccc([N+](=O)[O-])cc1
high

Classify this compound: Cc1ccccc1Cn1cc(CNC(=O)N[C@@H](CC(C)C)C(=O)NO)nn1
low

Classify this compound: CCCNNC(=O)c1ccc(CNC(=O)[C@H](CC(C)C)NC(=O)[C@@H](O)[C@H](N)Cc2ccccc2)cc1.Cl
low

Classify this compound: COc1ccc(/C=C/C(=O)N[C@H](C)C(=O)Nc2nnc(-c3ccc(F)cc3)s2)cc1
high

Classify this compound: CC(C)C[C@H](NC(=O)[C@@H](O)[C@H](N)Cc1ccccc1)C(=O)NCc1ccc(C(=O)Nc2ccccc2N)cc1
low

Classify this compound: COc1ccc(Cn2cc(CNC(=O)N[C@@H](CC(C)C)C(=O)NO)nn2)cc1OC
moderate

Classify this compound: COc1ccc(/C=N/NC(=O)Cn2c(=O)c(C)nc3ccccc32)c(OC)c1
high

Classify this compound: CC(C)C[C@H](NC(=O)NCc1cn(Cc2ccc([N+](=O)[O-])cc2)nn1)C(=O)NO
low

----------
Biological target: Aminopeptidase N (Sus scrofa)
Sequence (P15145 whole entry): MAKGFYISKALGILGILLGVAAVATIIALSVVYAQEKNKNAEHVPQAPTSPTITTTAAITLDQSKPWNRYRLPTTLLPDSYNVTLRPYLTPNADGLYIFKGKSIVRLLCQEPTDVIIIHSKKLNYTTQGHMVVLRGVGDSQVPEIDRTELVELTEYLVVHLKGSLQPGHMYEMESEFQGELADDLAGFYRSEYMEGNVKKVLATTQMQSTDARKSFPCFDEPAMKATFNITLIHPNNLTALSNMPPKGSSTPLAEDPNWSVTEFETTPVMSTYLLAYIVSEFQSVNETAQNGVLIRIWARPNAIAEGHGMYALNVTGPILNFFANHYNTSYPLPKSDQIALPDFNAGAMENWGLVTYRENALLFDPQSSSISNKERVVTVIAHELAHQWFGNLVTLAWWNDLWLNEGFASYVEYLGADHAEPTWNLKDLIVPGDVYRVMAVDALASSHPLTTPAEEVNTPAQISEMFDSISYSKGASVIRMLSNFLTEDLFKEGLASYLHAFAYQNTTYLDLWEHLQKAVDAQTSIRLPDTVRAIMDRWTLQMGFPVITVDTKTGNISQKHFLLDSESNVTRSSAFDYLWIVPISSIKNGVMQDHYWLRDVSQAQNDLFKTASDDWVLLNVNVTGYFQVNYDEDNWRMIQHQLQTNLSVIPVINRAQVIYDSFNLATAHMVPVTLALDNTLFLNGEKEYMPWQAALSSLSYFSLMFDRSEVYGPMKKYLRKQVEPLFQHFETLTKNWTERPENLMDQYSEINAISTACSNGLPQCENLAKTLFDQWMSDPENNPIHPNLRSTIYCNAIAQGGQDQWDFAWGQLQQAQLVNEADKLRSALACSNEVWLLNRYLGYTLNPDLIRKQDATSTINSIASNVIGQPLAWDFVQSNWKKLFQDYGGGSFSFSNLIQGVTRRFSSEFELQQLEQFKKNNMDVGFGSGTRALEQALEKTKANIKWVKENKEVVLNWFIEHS
Record set: log10(IC50) | Aminopeptidase N (Sus scrofa) | literature, multiple sources.
Note: values are log10 of IC50 expressed in µM.

Recorded log10(IC50), per entry:
Cc1ccc(S(=O)(=O)N2C[C@@H](NC(=O)CNC(=O)[C@@H](N)C(C)C)C[C@H]2C(=O)NO)cc1.Cl ... 1.98
NCCCCCC(=O)N[C@@H](CS)C(=O)NC[C@H](N)Cc1ccccc1 ... 2.31
CC(C)C[C@H](NC(=O)[C@@H](O)[C@H](N)Cc1ccccc1)C(=O)Nc1ccn([C@@H]2O[C@H](CO)[C@@H](O)C2(F)F)c(=O)n1.Cl ... 0.94

We next turn to a different molecule, shown below.
Entry COc1cc(/C=C/C(=O)CC(=O)/C=C/c2ccc(O)c(OC)c2)ccc1O : reported log10(IC50) = ?
1.19
